- System: SN12C renal
- assay_info: NCI-60 one-dose screen, 48 h (100 = growth as untreated, 0 = no growth, -100 = all killed)
- study_conditions: 10 µM unless noted
- Protocol: Growth inhibition of the SN12C human tumor cell line is measured as a screen for anti-cancer activity. Cells are grown in 96 well plates and exposed to the test compound for 48 hours. Compounds are tested at a single concentration, which is 10^-5 M for most compounds. The reported endpoint is percent growth (GI% or GIPRCNT), where numbers from 0 - 100% represent growth inhibition, and numbers from -100% - 0 represent cell death. For example, a value of 40 represents 60% growth inhibition. […]
Compounds without any hit were thinned out: in the full panel of roughly 83,000, 20% have a hit.
Label Yes when growth is at or above 90%; otherwise label No.

Take a look at these entries with their results.
INSERT INTO results (compound, classification) VALUES
  ('CCN1C(=O)/C(=C/N2N=C(c3ccc(Cl)cc3)CC2c2ccc(OC)cc2)SC1=S (stereo not given)', 'No'),
  ('Cc1nc(N)nc2c1CCC(Nc1ccccc1)S2 (stereo not given)', 'Yes'),
  ('COc1ccc(-c2conc2-n2nc(-c3ccccc3)nc2-c2ccccc2)cc1', 'Yes'),
  ('CCN(CC)c1ccc(/C=C2/NC(=O)NC2=O)cc1', 'No'),
  ('COc1cc(CN(CCC(O)N2CCCC2=O)Cc2ccc3c(c2)OCO3)cc(OC)c1OC (stereo not given)', 'Yes');

Prompt: Determine whether measured growth meets or exceeds 90% for CCN(CC)c1ccc2c(cc1=O)[C@@H](NC(C)=O)CCc1cc(OC)c(OC)c(OC)c1-2
Completion: No

Prompt: Likewise for CCCCCCCCN(CCCCCCCC)C(=O)CCl ?
Completion: Yes

Prompt: Now the same for Cc1ccc(NC(=O)c2cc(NCc3cc(O)ccc3O)ccc2O)cc1
Completion: No

Prompt: What about this compound? Cc1cc(-c2ccc(N=Nc3c(S(=O)(=O)O)cc4cc(S(=O)(=O)O)cc(O)c4c3O)c(C)c2)ccc1N=Nc1c(S(=O)(=O)O)cc2cc(S(=O)(=O)O)cc(O)c2c1O
Completion: Yes

Prompt: What do we get for O=C(CCl)N1c2ccccc2Oc2ccc3ccccc3c21 ?
Completion: No

---

Overview of reported growth across a group of molecules:
- Tested on: NCI/ADR-RES ovarian
- assay_info: NCI-60 one-dose screen, 48 h (100 = growth as untreated, 0 = no growth, -100 = all killed)
- study_conditions: 10 µM unless noted
Compounds without any hit were thinned out: in the full panel of roughly 83,000, 20% have a hit.
Kindly provide the numeric value in % only, without the unit symbol.

INSERT INTO results (molecule, value_kind, reported_measurement) VALUES
  ('CCN(CC)c1cc(C)c(Cc2c(OC)ccc3ccccc23)cc1C', 'growth', 103),
  ('COc1cccc(NC(=O)OC(C)C)c1', 'growth', 98.4),
  ('COc1ccc(-n2c(COc3ccc(F)cc3)n[nH]c2=S)cc1', 'growth', 103),
  ('Fc1ccc(-c2nc(-c3ccc(-c4nc5ccc(F)cc5[nH]4)cc3)no2)cc1', 'growth', 73.9),
  ('Nc1c(C(=O)Nc2ccccc2)sc2nc3c(cc12)C(=O)CCC3', 'growth', -6.39),
  ('CC(C)(C)[Si](C)(C)OC1[C@@H](CNC(N)=O)O[C@@H](n2cnc3c(NC(=O)Nc4ccccc4)ncnc32)[C@H]1O[Si](C)(C)C(C)(C)C (stereo not given in full)', 'growth', 58.5);

Prompt: Form field: reported growth of CC1CCCN(CCCCOc2ccc(-c3ccc(C#N)cc3)cc2)C1 (stereo not given)
Completion: 89.7
